- Tested on: rats (SLAC/GK, type 2 diabetes)
- test-details: Blood lipid in type 2 diabetes rats, transdermal
- Type: in vivo, rat
- condition-info: end of the fifth week, equal to 20 mg/kg of NSAIAs once per day
Let's look at some compounds and their measured Cholesterol (total), Average.

- compound: "CC(=O)Oc1ccccc1C(=O)Oc1ccccc1C(=O)Oc1ccccc1C(=O)O.CCN(CC)CCOC(=O)c1ccccc1OC(=O)c1ccccc1OC(C)=O [P-60]"
  Cholesterol (total), Average: "5.6 ± 0.3 mmol/L"
- compound: "CCN(CC)CCOC(=O)c1cc(NC(C)=O)ccc1OC(C)=O [P-58]"
  Cholesterol (total), Average: "5.6 ± 0.4 mmol/L"
- compound: "CC(=O)Oc1ccccc1C(=O)O.CCN(CC)CCOC(=O)c1ccccc1OC(C)=O [P-1]"
  Cholesterol (total), Average: "4.0 ± 0.3 mmol/L"
- compound: "CC(=O)Oc1ccccc1C(=O)Oc1ccccc1C(=O)O.CCN(CC)CCOC(=O)c1ccccc1OC(=O)c1ccccc1OC(C)=O [P-59]"
  Cholesterol (total), Average: "5.1 ± 0.3 mmol/L"
- compound: "CC(=O)O.CCN(CC)CCOC(=O)c1ccccc1O [diethylaminoethyl salicylate.AcOH]"
  Cholesterol (total), Average: "4.9 ± 0.4 mmol/L"
- compound: "CC(=O)Nc1ccc(OC(=O)c2ccccc2OC(=O)CCCN(C)C)cc1.Cl [P-6]"
  Cholesterol (total), Average: "4.7 ± 0.4 mmol/L"
- compound: "CC(=O)O.CCN(CC)CCOC(=O)c1ccccc1OC(=O)c1ccccc1O [diethylaminoethyl salicylsalicylate.AcOH]"
  Cholesterol (total), Average: "4.8 ± 0.4 mmol/L"
- compound: "CC(=O)Oc1ccc(-c2ccc(F)cc2F)cc1C(=O)O.CCN(CC)CCOC(=O)c1cc(-c2ccc(F)cc2F)ccc1OC(C)=O [P-8]"
  Cholesterol (total), Average: "5.3 ± 0.3 mmol/L"
